Here the recorded RBA is given for each entry.
target: rat lung glucocorticoid receptor (Rattus norvegicus); construct: Immediately after resection of the lungs, the tissue was frozen in ice; The cytosol was prepared; from tissue; host or cells: lung cytosol of adrenalectomized male Sprague-Dawley rats; assay: Receptor binding studies ([3H]triamcinolone acetonide displacement); conditions: further receptor binding studies (Table X); dexamethasone = 100; * mean ± SE of 3-5 results
Sequence (P06536 whole entry): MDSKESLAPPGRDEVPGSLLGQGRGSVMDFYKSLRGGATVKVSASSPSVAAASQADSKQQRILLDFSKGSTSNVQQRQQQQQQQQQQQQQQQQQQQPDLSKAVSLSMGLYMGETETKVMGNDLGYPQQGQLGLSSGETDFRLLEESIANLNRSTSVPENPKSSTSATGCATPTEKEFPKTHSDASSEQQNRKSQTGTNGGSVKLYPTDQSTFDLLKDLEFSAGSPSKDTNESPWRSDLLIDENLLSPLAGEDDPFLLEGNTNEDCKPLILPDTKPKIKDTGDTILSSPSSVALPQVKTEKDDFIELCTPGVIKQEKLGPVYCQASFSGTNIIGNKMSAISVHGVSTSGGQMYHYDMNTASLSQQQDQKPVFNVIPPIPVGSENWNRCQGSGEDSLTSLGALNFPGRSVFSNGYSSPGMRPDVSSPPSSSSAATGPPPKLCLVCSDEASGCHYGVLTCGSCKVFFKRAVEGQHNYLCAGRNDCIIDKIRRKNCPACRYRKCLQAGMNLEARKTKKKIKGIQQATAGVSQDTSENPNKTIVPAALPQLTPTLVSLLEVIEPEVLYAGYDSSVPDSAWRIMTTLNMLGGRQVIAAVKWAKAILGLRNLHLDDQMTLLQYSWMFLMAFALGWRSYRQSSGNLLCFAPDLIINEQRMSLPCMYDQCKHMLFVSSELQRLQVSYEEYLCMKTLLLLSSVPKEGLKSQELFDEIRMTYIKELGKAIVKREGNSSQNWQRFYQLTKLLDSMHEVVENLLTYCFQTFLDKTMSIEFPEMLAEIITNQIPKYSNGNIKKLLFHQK
Could you respond with only the numeric value?

{"columns": ["compound", "RBA"],
 "data": [
  ["CCCCC(=O)O[C@]1(C(=O)CO)[C@@H](C)C[C@H]2[C@@H]3CCC4=CC(=O)C=C[C@]4(C)[C@@]3(F)[C@@H](O)C[C@@]21C [Betamethasone 17-valerate, reference compound]", 1742],
  ["CCOC(=O)[C@@]1(OC(=O)CCl)CC[C@H]2[C@@H]3CCC4=CC(=O)C=C[C@]4(C)[C@H]3[C@@H](O)C[C@@]21C", 22],
  ["COC(=O)[C@@]1(OC(=O)C(Cl)Cl)CC[C@H]2[C@@H]3CCC4=CC(=O)C=C[C@]4(C)[C@H]3[C@@H](O)C[C@@]21C", 165],
  ["CCOC(=O)[C@@]1(OC(=O)C(Cl)Cl)[C@H](C)C[C@H]2[C@@H]3CCC4=CC(=O)C=C[C@]4(C)[C@@]3(F)[C@@H](O)C[C@@]21C", 687],
  ["CCOC(=O)[C@@]1(OC(=O)CC)CC[C@H]2[C@@H]3CCC4=CC(=O)C=C[C@]4(C)[C@H]3[C@@H](O)C[C@@]21C [Compound P, reference compound]", 38]
]}

From here, focus on the item given below.
Request: Request the reported RBA associated with CCOC(=O)[C@@]1(OC(=O)C(Cl)Cl)CC[C@H]2[C@@H]3CCC4=CC(=O)C=C[C@]4(C)[C@H]3[C@@H](O)C[C@@]21C
Response: 222
